Origin of values: patent US11931431B2

- System: PSMA^+ PC-3 PIP tumors
- Experiment notes: MicroPET/CT imaging of mice transplanted with prostate cancer cell lines
- Assay type: in vivo, nude mouse
- Condition context: 150 min after injection
Quantity name: intake of mouse organ: Tumor (PIP) (% ID/g)

1) Cc1ccc(CCCC(=O)NCCCCC(NC(=O)CN2CCN3CCN4CCN(CC2)CC(=O)[O][68Ga]([O]C(=O)C3)[O]C(=O)C4)C(=O)NCCOCCOCC(=O)N(CCCCC(NC(=O)NC(CCC(=O)O)C(=O)O)C(=O)O)CC(=O)O)cc1 (stereo not shown) [[^68Ga]1g] = 11.4
2) O=C(O)CCC(NC(=O)NC(CCCCN(CC(=O)O)C(=O)COCCOCCNC(=O)C(CCCCNC(=O)CCCc1ccc(I)cc1)NC(=O)CN1CCN2CCN3CCN(CC1)CC(=O)[O][68Ga]([O]C(=O)C2)[O]C(=O)C3)C(=O)O)C(=O)O (stereo not shown) [[^68Ga]1h] = 9.90

1: O=C(O)CCC(NC(=O)NC(CCCCN(CC(=O)O)C(=O)COCCOCCNC(=O)CN1CCN2CCN3CCN(CC1)CC(=O)[O][68Ga]([O]C(=O)C2)[O]C(=O)C3)C(=O)O)C(=O)O (stereo not shown) [[^68Ga]1e]
2: O=C(O)CCC(NC(=O)NC(CCCCN(CC(=O)O)C(=O)COCCNC(=O)C(CCCCNC(=O)CCCc1ccc(I)cc1)NC(=O)CN1CCN2CCN3CCN(CC1)CC(=O)[O][68Ga]([O]C(=O)C2)[O]C(=O)C3)C(=O)O)C(=O)O (stereo not shown) [[^68Ga]1k]
Input: Between 1 and 2 , which one shows the smaller intake of mouse organ: Tumor (PIP) number? Reply briefly: the label of your chosen item.
Output: 1

----------
- System: PSMA^+ PC-3 PIP tumors
- Experiment notes: MicroPET/CT imaging of mice transplanted with prostate cancer cell lines
- Assay type: in vivo, nude mouse
- Condition context: 40 min after injection
Quantity name: intake of mouse organ: Muscle (% ID/g)

1. O=C(O)CCC(NC(=O)NC(CCCCN(CC(=O)O)C(=O)COCCOCCNC(=O)C(CCCCNC(=O)CCCc1ccc(I)cc1)NC(=O)CN1CCN2CCN3CCN(CC1)CC(=O)[O][68Ga]([O]C(=O)C2)[O]C(=O)C3)C(=O)O)C(=O)O (stereo not shown) [[^68Ga]1h] = 3.28

a: O=C(O)CCC(NC(=O)NC(CCCCN(CC(=O)O)C(=O)COCCNC(=O)C(CCCCNC(=O)CCCc1ccc(I)cc1)NC(=O)CN1CCN2CCN3CCN(CC1)CC(=O)[O][68Ga]([O]C(=O)C2)[O]C(=O)C3)C(=O)O)C(=O)O (stereo not shown) [[^68Ga]1k]
b: O=C(O)CCC(NC(=O)NC(CCCCN(CC(=O)O)C(=O)COCCOCCNC(=O)CN1CCN2CCN3CCN(CC1)CC(=O)[O][68Ga]([O]C(=O)C2)[O]C(=O)C3)C(=O)O)C(=O)O (stereo not shown) [[^68Ga]1e]
c: Cc1ccc(CCCC(=O)NCCCCC(NC(=O)CN2CCN3CCN4CCN(CC2)CC(=O)[O][68Ga]([O]C(=O)C3)[O]C(=O)C4)C(=O)NCCOCCOCC(=O)N(CCCCC(NC(=O)NC(CCC(=O)O)C(=O)O)C(=O)O)CC(=O)O)cc1 (stereo not shown) [[^68Ga]1g]
Input: Arrange the 3 compounds by rising intake of mouse organ: Muscle, starting with the smallest. Arrange the labels as the request states and list them.
Output: b, c, a

----------
- Test system: PSMA^+ PC-3 PIP tumors
- Experiment notes: MicroPET/CT imaging of mice transplanted with prostate cancer cell lines
- Assay type: in vivo, nude mouse
- Condition context: 50 min after injection
Quantity name: intake of mouse organ: Muscle (% ID/g)

1) O=C(O)CCC(NC(=O)NC(CCCCN(CC(=O)O)C(=O)COCCOCCNC(=O)C(CCCCNC(=O)CCCc1ccc(I)cc1)NC(=O)CN1CCN2CCN3CCN(CC1)CC(=O)[O][68Ga]([O]C(=O)C2)[O]C(=O)C3)C(=O)O)C(=O)O (stereo not shown) [[^68Ga]1h] = 3.25

A: O=C(O)CCC(NC(=O)NC(CCCCN(CC(=O)O)C(=O)COCCOCCNC(=O)CN1CCN2CCN3CCN(CC1)CC(=O)[O][68Ga]([O]C(=O)C2)[O]C(=O)C3)C(=O)O)C(=O)O (stereo not shown) [[^68Ga]1e]
B: O=C(O)CCC(NC(=O)NC(CCCCN(CC(=O)O)C(=O)COCCNC(=O)C(CCCCNC(=O)CCCc1ccc(I)cc1)NC(=O)CN1CCN2CCN3CCN(CC1)CC(=O)[O][68Ga]([O]C(=O)C2)[O]C(=O)C3)C(=O)O)C(=O)O (stereo not shown) [[^68Ga]1k]
C: Cc1ccc(CCCC(=O)NCCCCC(NC(=O)CN2CCN3CCN4CCN(CC2)CC(=O)[O][68Ga]([O]C(=O)C3)[O]C(=O)C4)C(=O)NCCOCCOCC(=O)N(CCCCC(NC(=O)NC(CCC(=O)O)C(=O)O)C(=O)O)CC(=O)O)cc1 (stereo not shown) [[^68Ga]1g]
Input: Order field: intake of mouse organ: Muscle | Direction: descending (largest first) Arrange the labels as the request states and list them.
Output: B, C, A
(B: 3.24 % ID/g, C: 1.54 % ID/g, A: 0.53 % ID/g)

----------
- Tested on: PSMA^+ PC-3 PIP tumors
- Experiment notes: MicroPET/CT imaging of mice transplanted with prostate cancer cell lines
- Type: in vivo, nude mouse
- Condition context: 40 min after injection
Quantity name: intake of mouse organ: Tumor (PIP) (% ID/g)

1) Cc1ccc(CCCC(=O)NCCCCC(NC(=O)CN2CCN3CCN4CCN(CC2)CC(=O)[O][68Ga]([O]C(=O)C3)[O]C(=O)C4)C(=O)NCCOCCOCC(=O)N(CCCCC(NC(=O)NC(CCC(=O)O)C(=O)O)C(=O)O)CC(=O)O)cc1 (stereo not shown) [[^68Ga]1g] = 6.43
2) O=C(O)CCC(NC(=O)NC(CCCCN(CC(=O)O)C(=O)COCCOCCNC(=O)CN1CCN2CCN3CCN(CC1)CC(=O)[O][68Ga]([O]C(=O)C2)[O]C(=O)C3)C(=O)O)C(=O)O (stereo not shown) [[^68Ga]1e] = 4.44
3) O=C(O)CCC(NC(=O)NC(CCCCN(CC(=O)O)C(=O)COCCNC(=O)C(CCCCNC(=O)CCCc1ccc(I)cc1)NC(=O)CN1CCN2CCN3CCN(CC1)CC(=O)[O][68Ga]([O]C(=O)C2)[O]C(=O)C3)C(=O)O)C(=O)O (stereo not shown) [[^68Ga]1k] = 4.40
4) O=C(O)CCC(NC(=O)NC(CCCCN(CC(=O)O)C(=O)COCCOCCNC(=O)C(CCCCNC(=O)CCCc1ccc(I)cc1)NC(=O)CN1CCN2CCN3CCN(CC1)CC(=O)[O][68Ga]([O]C(=O)C2)[O]C(=O)C3)C(=O)O)C(=O)O (stereo not shown) [[^68Ga]1h] = 6.22

----------
- Tested on: PSMA^+ PC-3 PIP tumors
- Experiment notes: MicroPET/CT imaging of mice transplanted with prostate cancer cell lines
- Format: in vivo, nude mouse
- Condition context: 60 min after injection
Quantity name: intake of mouse organ: Liver (% ID/g)

1) O=C(O)CCC(NC(=O)NC(CCCCN(CC(=O)O)C(=O)COCCNC(=O)C(CCCCNC(=O)CCCc1ccc(I)cc1)NC(=O)CN1CCN2CCN3CCN(CC1)CC(=O)[O][68Ga]([O]C(=O)C2)[O]C(=O)C3)C(=O)O)C(=O)O (stereo not shown) [[^68Ga]1k] = 8.22

A: O=C(O)CCC(NC(=O)NC(CCCCN(CC(=O)O)C(=O)COCCOCCNC(=O)C(CCCCNC(=O)CCCc1ccc(I)cc1)NC(=O)CN1CCN2CCN3CCN(CC1)CC(=O)[O][68Ga]([O]C(=O)C2)[O]C(=O)C3)C(=O)O)C(=O)O (stereo not shown) [[^68Ga]1h]
B: Cc1ccc(CCCC(=O)NCCCCC(NC(=O)CN2CCN3CCN4CCN(CC2)CC(=O)[O][68Ga]([O]C(=O)C3)[O]C(=O)C4)C(=O)NCCOCCOCC(=O)N(CCCCC(NC(=O)NC(CCC(=O)O)C(=O)O)C(=O)O)CC(=O)O)cc1 (stereo not shown) [[^68Ga]1g]
C: O=C(O)CCC(NC(=O)NC(CCCCN(CC(=O)O)C(=O)COCCOCCNC(=O)CN1CCN2CCN3CCN(CC1)CC(=O)[O][68Ga]([O]C(=O)C2)[O]C(=O)C3)C(=O)O)C(=O)O (stereo not shown) [[^68Ga]1e]
Input: Arrange the 3 compounds by rising intake of mouse organ: Liver, starting with the smallest. Arrange the labels as the request states and list them.
Output: C, B, A

----------
- System: PSMA^+ PC-3 PIP tumors
- Experiment notes: MicroPET/CT imaging of mice transplanted with prostate cancer cell lines
- Assay type: in vivo, nude mouse
- Condition context: 50 min after injection
Quantity name: intake of mouse organ: Tumor (PIP) (% ID/g)

Consider the worked cases shown below.
1. O=C(O)CCC(NC(=O)NC(CCCCN(CC(=O)O)C(=O)COCCNC(=O)C(CCCCNC(=O)CCCc1ccc(I)cc1)NC(=O)CN1CCN2CCN3CCN(CC1)CC(=O)[O][68Ga]([O]C(=O)C2)[O]C(=O)C3)C(=O)O)C(=O)O (stereo not shown) [[^68Ga]1k] = 5.03
2. Cc1ccc(CCCC(=O)NCCCCC(NC(=O)CN2CCN3CCN4CCN(CC2)CC(=O)[O][68Ga]([O]C(=O)C3)[O]C(=O)C4)C(=O)NCCOCCOCC(=O)N(CCCCC(NC(=O)NC(CCC(=O)O)C(=O)O)C(=O)O)CC(=O)O)cc1 (stereo not shown) [[^68Ga]1g] = 7.33

P: O=C(O)CCC(NC(=O)NC(CCCCN(CC(=O)O)C(=O)COCCOCCNC(=O)CN1CCN2CCN3CCN(CC1)CC(=O)[O][68Ga]([O]C(=O)C2)[O]C(=O)C3)C(=O)O)C(=O)O (stereo not shown) [[^68Ga]1e]
Q: O=C(O)CCC(NC(=O)NC(CCCCN(CC(=O)O)C(=O)COCCOCCNC(=O)C(CCCCNC(=O)CCCc1ccc(I)cc1)NC(=O)CN1CCN2CCN3CCN(CC1)CC(=O)[O][68Ga]([O]C(=O)C2)[O]C(=O)C3)C(=O)O)C(=O)O (stereo not shown) [[^68Ga]1h]
Input: Between P and Q , which one shows the smaller intake of mouse organ: Tumor (PIP) number? Reply briefly: the label of your chosen item.
Output: P
